Tested on: BaF3
Assay: Antiproliferative activity against mouse BaF3 cells harboring TEL-FGFR3 assessed as cell growth inhibition by CellTiter-Glo assay
Type: functional
# GI50 per record follows
Please state the figure in nM; there is no need to write the unit.

Can you look up the measured GI50 of COc1ccccc1Nc1ncnc(-c2cccnc2Nc2c(Cl)c(OC)cc(OC)c2Cl)n1 for me?
4120

* * *

Test system: BaF3
Assay: Antiproliferative activity against mouse BaF3 cells harboring TEL-FGFR3 assessed as cell growth inhibition by CellTiter-Glo assay
Assay type: functional
METRIC: log10 of GI50 (log10 of the value in nM)
Remember, log10 of GI50, in nM.

Below, each entry is followed by its recorded log10 of GI50 result.
>  <SMILES_REPR>
COc1cc(OC)c(Cl)c(Nc2ncccc2-c2ncnc(Nc3cnn(C4CCNCC4)c3)n2)c1Cl

>  <log10 of GI50>
1.00

$$$$
>  <SMILES_REPR>
COc1cc(N2CCN(C)CC2)ccc1Nc1ncnc(-c2cccnc2Nc2c(Cl)c(OC)cc(OC)c2Cl)n1

>  <log10 of GI50>
2.45

$$$$
>  <SMILES_REPR>
COc1cc(OC)c(Cl)c(Nc2ncccc2-c2ncnc(Nc3ccc(N4CCOCC4)cc3)n2)c1Cl

>  <log10 of GI50>
2.59

$$$$
>  <SMILES_REPR>
COc1cc(OC)c(Cl)c(Nc2ncccc2-c2ncnc(Nc3cnn(C)c3)n2)c1Cl

>  <log10 of GI50>
0.70

$$$$
>  <SMILES_REPR>
COc1cc(OC)cc(N(CCNC(C)C)c2ccc3ncc(-c4cnn(C)c4)nc3c2)c1

>  <log10 of GI50>
0.70

$$$$

Can you look up the measured log10 of GI50 of COc1cc(OC)c(Cl)c(Nc2ncccc2-c2ncnc(Nc3ccc(N4CCC(O)CC4)cc3)n2)c1Cl for me?
1.60

Also, COc1cc(OC)c(Cl)c(Nc2ncccc2-c2ncnc(Nc3ccc(N(C)C)cc3)n2)c1Cl please.
2.21

* * *

# GI50 per record follows
Experiment: Antiproliferative activity against mouse BaF3 cells assessed as cell growth inhibition by CellTiter-Glo assay
Settings: BaF3 cells

Below, each entry is followed by its recorded GI50 result.
>  <SMILES_REPR>
COc1cc(OC)c(Cl)c(Nc2ncccc2-c2ncnc(Nc3cnn(C4CCOCC4)c3)n2)c1Cl

>  <GI50>
> 5 µM

$$$$
>  <SMILES_REPR>
COc1cc(OC)c(Cl)c(Nc2ncccc2-c2ncnc(Nc3cnn(C4CCN(C(C)C)CC4)c3)n2)c1Cl

>  <GI50>
> 5 µM

$$$$
>  <SMILES_REPR>
COc1cccc(Nc2ncnc(-c3cccnc3Nc3c(Cl)c(OC)cc(OC)c3Cl)n2)c1

>  <GI50>
> 5 µM

$$$$
>  <SMILES_REPR>
COc1cc(N2CCOCC2)ccc1Nc1ncnc(-c2cccnc2Nc2c(Cl)c(OC)cc(OC)c2Cl)n1

>  <GI50>
> 5 µM

$$$$
>  <SMILES_REPR>
COc1cc(OC)c(Cl)c(Nc2ncccc2-c2ncnc(Nc3ccc(N4CCOCC4)cc3)n2)c1Cl

>  <GI50>
> 5 µM

$$$$
>  <SMILES_REPR>
C=CCn1cc(Nc2ncnc(-c3cccnc3Nc3c(Cl)c(OC)cc(OC)c3Cl)n2)cn1

>  <GI50>
> 5 µM

$$$$
>  <SMILES_REPR>
COc1cc(OC)c(Cl)c(Nc2ncccc2-c2ncnc(Nc3ccc(N4C[C@@H](C)N[C@@H](C)C4)cc3)n2)c1Cl

>  <GI50>
1.53 µM

$$$$
>  <SMILES_REPR>
CCN1C(=O)N(c2c(F)c(OC)cc(OC)c2F)Cc2cnc3[nH]c(CN4CCOCC4)cc3c21

>  <GI50>
> 5 µM

$$$$

Can you look up the measured GI50 of CCN1CCN(c2ccc(Nc3cc(N(C)C(=O)Nc4c(Cl)c(OC)cc(OC)c4Cl)ncn3)cc2)CC1 for me?
> 5 µM

Also, COc1cc(N2C[C@@H](C)N[C@@H](C)C2)ccc1Nc1ncnc(-c2cccnc2Nc2c(Cl)c(OC)cc(OC)c2Cl)n1 please.
2.73 µM

Also, COc1cc(OC)c(Cl)c(Nc2ncccc2-c2ncnc(NCCN(C)C)n2)c1Cl please.
> 5 µM

* * *

Assay: Stability in rat liver microsomes assessed as parent compound remaining at 1 uM incubated for 30 mins
Assay type: ADME, Microsome
Conditions: read-out: Stability
# remaining at 0.5 h, 1 µM per record follows

Below, each entry is followed by its recorded remaining at 0.5 h, 1 µM result.
>  <SMILES_REPR>
CCN1CCN(c2ccc(Nc3cc(N(C)C(=O)Nc4c(Cl)c(OC)cc(OC)c4Cl)ncn3)cc2)CC1

>  <remaining at 0.5 h, 1 µM>
10.9%

$$$$
>  <SMILES_REPR>
COc1cc(OC)c(Cl)c(Nc2ncccc2-c2ncnc(Nc3cnn(C4CCNCC4)c3)n2)c1Cl

>  <remaining at 0.5 h, 1 µM>
65.4%

$$$$

Can you look up the measured remaining at 0.5 h, 1 µM of COc1cc(OC)c(Cl)c(Nc2ncccc2-c2ncnc(Nc3ccc(N4C[C@@H](C)N[C@@H](C)C4)cc3)n2)c1Cl for me?
11.7%

* * *

# activity at 10 µM per record follows
Target: CYP2C9 (Homo sapiens, UniProt P11712)
Sequence (P11712 whole entry): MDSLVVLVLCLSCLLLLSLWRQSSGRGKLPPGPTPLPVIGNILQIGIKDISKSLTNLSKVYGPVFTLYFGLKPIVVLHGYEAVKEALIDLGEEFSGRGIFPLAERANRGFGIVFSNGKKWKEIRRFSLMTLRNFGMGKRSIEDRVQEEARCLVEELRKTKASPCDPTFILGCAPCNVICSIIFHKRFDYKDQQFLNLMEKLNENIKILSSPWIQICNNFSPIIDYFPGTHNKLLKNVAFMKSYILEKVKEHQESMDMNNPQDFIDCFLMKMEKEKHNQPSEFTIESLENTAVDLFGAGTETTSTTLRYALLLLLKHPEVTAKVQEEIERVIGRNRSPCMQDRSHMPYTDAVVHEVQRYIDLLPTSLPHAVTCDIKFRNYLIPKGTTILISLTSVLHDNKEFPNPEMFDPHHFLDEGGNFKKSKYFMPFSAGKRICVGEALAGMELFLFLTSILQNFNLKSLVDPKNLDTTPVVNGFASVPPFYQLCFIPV
Assay: Inhibition of CYP2C9 (unknown origin) assessed as remaining activity at 10 uM relative to control
Type: ADME
Details: read-out: Activity
Please state the figure in %; there is no need to write the unit.

Below, each entry is followed by its recorded activity at 10 µM result.
>  <SMILES_REPR>
COc1cc(OC)c(Cl)c(Nc2ncccc2-c2ncnc(Nc3cnn(C4CCN(C(C)C)CC4)c3)n2)c1Cl

>  <UNITS_TEXT>
%

>  <REPORTED>
79.1

$$$$
>  <SMILES_REPR>
COc1cc(OC)c(Cl)c(Nc2ncccc2-c2ncnc(Nc3ccc(N4C[C@@H](C)N[C@@H](C)C4)cc3)n2)c1Cl

>  <UNITS_TEXT>
%

>  <REPORTED>
62.3

$$$$
>  <SMILES_REPR>
CCN1CCN(c2ccc(Nc3cc(N(C)C(=O)Nc4c(Cl)c(OC)cc(OC)c4Cl)ncn3)cc2)CC1

>  <UNITS_TEXT>
%

>  <REPORTED>
88.4

$$$$

Next item in the queue.
Please provide the recorded activity at 10 µM for COc1cc(OC)c(Cl)c(Nc2ncccc2-c2ncnc(Nc3cnn(C4CCNCC4)c3)n2)c1Cl , tested on CYP2C9 (Homo sapiens, UniProt P11712).
89.9

* * *

Assay system Fibroblast growth factor receptor 3 (Homo sapiens, UniProt P22607, K650M); read-out recorded as IC50.
Could you write the number and then its unit?

Below, each entry is followed by its recorded IC50 result.
>  <SMILES_REPR>
CCN1CCN(c2cccc(Nc3ncnc(-c4cccnc4Nc4c(Cl)c(OC)cc(OC)c4Cl)n3)c2)CC1

>  <TGT>
Fibroblast growth factor receptor 3 (Homo sapiens, UniProt P22607, K650M)
Sequence (P22607 23-806 K650M limits assumed): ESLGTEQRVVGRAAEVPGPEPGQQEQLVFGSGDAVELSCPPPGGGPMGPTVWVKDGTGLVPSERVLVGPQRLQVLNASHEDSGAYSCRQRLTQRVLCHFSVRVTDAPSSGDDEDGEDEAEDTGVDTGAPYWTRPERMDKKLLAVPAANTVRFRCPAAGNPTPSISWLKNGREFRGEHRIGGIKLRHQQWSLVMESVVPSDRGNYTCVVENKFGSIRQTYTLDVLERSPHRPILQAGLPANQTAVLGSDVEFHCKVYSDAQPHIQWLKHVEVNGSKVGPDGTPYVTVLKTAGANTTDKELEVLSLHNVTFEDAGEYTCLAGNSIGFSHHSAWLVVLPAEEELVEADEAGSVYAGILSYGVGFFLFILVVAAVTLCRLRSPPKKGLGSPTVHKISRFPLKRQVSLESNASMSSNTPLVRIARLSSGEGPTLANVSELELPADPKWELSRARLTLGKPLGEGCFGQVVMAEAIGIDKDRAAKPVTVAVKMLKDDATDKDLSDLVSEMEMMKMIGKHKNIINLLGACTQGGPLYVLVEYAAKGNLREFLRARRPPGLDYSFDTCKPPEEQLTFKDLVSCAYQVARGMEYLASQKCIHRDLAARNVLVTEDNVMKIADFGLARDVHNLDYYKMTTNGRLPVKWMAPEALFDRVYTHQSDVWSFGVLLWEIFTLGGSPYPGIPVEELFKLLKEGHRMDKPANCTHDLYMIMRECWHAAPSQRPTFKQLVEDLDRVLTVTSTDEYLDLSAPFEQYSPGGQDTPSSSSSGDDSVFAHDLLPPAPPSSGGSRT

>  <IC50>
44.3 nM

$$$$
>  <SMILES_REPR>
COc1cc(OC)c(Cl)c(Nc2ncccc2-c2ncnc(Nc3ccc(N4C[C@@H](C)N[C@@H](C)C4)cc3)n2)c1Cl

>  <TGT>
Fibroblast growth factor receptor 3 (Homo sapiens, UniProt P22607, K650M)

>  <IC50>
26.1 nM

$$$$
>  <SMILES_REPR>
COc1cc(OC)c(Cl)c(Nc2ncccc2-c2ncnc(Nc3cnn(C4CCN(C(C)C)CC4)c3)n2)c1Cl

>  <TGT>
Fibroblast growth factor receptor 3 (Homo sapiens, UniProt P22607, K650M)

>  <IC50>
4.8 nM

$$$$

Please provide the recorded IC50 for COc1cc(OC)c(Cl)c(Nc2ncccc2-c2ncnc(Nc3cnn(C4CCNCC4)c3)n2)c1Cl , tested on Fibroblast growth factor receptor 3 (Homo sapiens, UniProt P22607, K650M).
10.9 nM

* * *

Assay system Fibroblast growth factor receptor 3 (Homo sapiens, UniProt P22607, V555M); read-out recorded as IC50.
Please state the figure in nM; there is no need to write the unit.

Below, each entry is followed by its recorded IC50 result.
>  <SMILES_REPR>
COc1cc(OC)c(Cl)c(Nc2ncccc2-c2ncnc(Nc3ccc(N4CCC(O)CC4)cc3)n2)c1Cl

>  <METRIC>
IC50

>  <UNITS_TEXT>
nM

>  <REPORTED>
1810

$$$$
>  <SMILES_REPR>
COc1cc(OC)c(Cl)c(Nc2ncccc2-c2ncnc(Nc3cnn(C4CCOCC4)c3)n2)c1Cl

>  <METRIC>
IC50

>  <UNITS_TEXT>
nM

>  <REPORTED>
1170

$$$$
>  <SMILES_REPR>
COc1cc(OC)c(Cl)c(Nc2ncccc2-c2ncnc(Nc3ccc(N4C[C@@H](C)N[C@@H](C)C4)cc3)n2)c1Cl

>  <METRIC>
IC50

>  <UNITS_TEXT>
nM

>  <REPORTED>
116

$$$$
>  <SMILES_REPR>
COc1cc(OC)c(Cl)c(Nc2ncccc2-c2ncnc(Nc3ccc(N4CCOCC4)nc3)n2)c1Cl

>  <METRIC>
IC50

>  <UNITS_TEXT>
nM

>  <REPORTED>
4060

$$$$
>  <SMILES_REPR>
CCN1CCN(c2cccc(Nc3ncnc(-c4cccnc4Nc4c(Cl)c(OC)cc(OC)c4Cl)n3)c2)CC1

>  <METRIC>
IC50

>  <UNITS_TEXT>
nM

>  <REPORTED>
134

$$$$

Please provide the recorded IC50 for COc1cc(OC)c(Cl)c(Nc2ncccc2-c2ncnc(Nc3ccc(N4CCN(C(C)=O)CC4)cc3)n2)c1Cl , tested on Fibroblast growth factor receptor 3 (Homo sapiens, UniProt P22607, V555M).
Sequence (P22607 23-806 V555M limits assumed): as the sequence (P22607 23-806 K650M limits assumed) above, with V533M, M628K counted along it
1120

Also, COc1cc(N2CCN(C)CC2)ccc1Nc1ncnc(-c2cccnc2Nc2c(Cl)c(OC)cc(OC)c2Cl)n1 please.
7750

Also, COc1cc(OC)c(Cl)c(Nc2ncccc2-c2ncnc(Nc3cnn(C4CCN(C(C)C)CC4)c3)n2)c1Cl please.
22.3
